- assayProcedure: Ratio of drug level in heart to blood in Sprague-Dawley rat after 60 mins
- Type: ADME
- measurementConditions: heart and blood (heart-to-blood ratio)
endpointLabel: Kp at 1 h

I. CC(C)(C)n1ncc(OCc2ccc(COCC[18F])cc2)c(Cl)c1=O
II. [18F]c1ccc([P+](c2ccccc2)(c2ccccc2)c2ccccc2)cc1
Input: Endpoint returns whichever of I and II has the numerically higher Kp at 1 h. Let me know the label of the one you choose.
Output: II

----------
- Tested on: Rattus norvegicus
- assayProcedure: Biodistribution in rat gut at 1.1 to 2.2, iv after 60 mins
- Format: ADME, organism-based
- measurementConditions: in vivo, 1 h
Known Drug uptake of a selection of compounds
Please reply with the bare figure in % ID/g and do not write the unit itself.

Answered cases to consult:
CCN(CC)c1ccc2c(-c3ccccc3C(=O)OCCOCC[18F])c3ccc(=[N+](CC)CC)cc-3oc2c1.Cc1ccc(S(=O)(=O)[O-])cc1 = 1.69
CCN(CC)c1ccc2c(-c3ccccc3C(=O)OCCOCCOCC[18F])c3ccc(=[N+](CC)CC)cc-3oc2c1.Cc1ccc(S(=O)(=O)[O-])cc1 = 0.44
CCN(CC)c1ccc2c(-c3ccccc3C(=O)OCC[18F])c3ccc(=[N+](CC)CC)cc-3oc2c1.Cc1ccc(S(=O)(=O)[O-])cc1 = 2.4

# evaluate next
Input: Tell me reported Drug uptake for `CCN(CC)c1ccc2c(-c3ccccc3C(=O)OCCC[18F])c3ccc(=[N+](CC)CC)cc-3oc2c1.Cc1ccc(S(=O)(=O)[O-])cc1` , tested with Rattus norvegicus.
Output: 2.53

----------
- Tested on: Blood
- assayProcedure: Biodistribution in rat blood at 1.1 to 2.2, iv after 60 mins
- Format: ADME, organism-based
- measurementConditions: in vivo, 1 h
endpointLabel: Drug uptake (% ID/g)
State the answer as a number, implicitly in % ID/g.

These solved cases illustrate the format of a correct answer.
CCN(CC)c1ccc2c(-c3ccccc3C(=O)OCCOCC[18F])c3ccc(=[N+](CC)CC)cc-3oc2c1.Cc1ccc(S(=O)(=O)[O-])cc1 = 0.25
CCN(CC)c1ccc2c(-c3ccccc3C(=O)OCCOCCOCC[18F])c3ccc(=[N+](CC)CC)cc-3oc2c1.Cc1ccc(S(=O)(=O)[O-])cc1 = 0.19
CCN(CC)c1ccc2c(-c3ccccc3C(=O)OCCC[18F])c3ccc(=[N+](CC)CC)cc-3oc2c1.Cc1ccc(S(=O)(=O)[O-])cc1 = 0.05

Here's the next entry for you.
Input: Fill blank: measured Drug uptake of the compound `CCN(CC)c1ccc2c(-c3ccccc3C(=O)OCC[18F])c3ccc(=[N+](CC)CC)cc-3oc2c1.Cc1ccc(S(=O)(=O)[O-])cc1` is ____.
Output: 0.08

----------
- assayProcedure: Ratio of drug level in heart to blood in rat at 1.1 to 2.2, iv after 60 mins
- Assay type: ADME, organism-based
- measurementConditions: heart and blood (heart-to-blood ratio)
endpointLabel: Kp at 1 h
The answer should be a number; do not append a unit.

CCN(CC)c1ccc2c(-c3ccccc3C(=O)OCCOCCOCC[18F])c3ccc(=[N+](CC)CC)cc-3oc2c1.Cc1ccc(S(=O)(=O)[O-])cc1 = 5.4
CCN(CC)c1ccc2c(-c3ccccc3C(=O)OCCC[18F])c3ccc(=[N+](CC)CC)cc-3oc2c1.Cc1ccc(S(=O)(=O)[O-])cc1 = 26.4
CCN(CC)c1ccc2c(-c3ccccc3C(=O)OCC[18F])c3ccc(=[N+](CC)CC)cc-3oc2c1.Cc1ccc(S(=O)(=O)[O-])cc1 = 25.8

The record that follows has no Kp at 1 h shown yet.
Input: Param item = `CCN(CC)c1ccc2c(-c3ccccc3C(=O)OCCOCC[18F])c3ccc(=[N+](CC)CC)cc-3oc2c1.Cc1ccc(S(=O)(=O)[O-])cc1` ; retrieve measured Kp at 1 h.
Output: 10

----------
The following compounds are shown together with reported Drug uptake values.
- Tested on: Muscle tissue
- assayProcedure: Biodistribution in rat muscle at 1.1 to 2.2, iv after 60 mins
- Format: ADME, organism-based
- measurementConditions: in vivo, 1 h
Report the value in % ID/g with no unit label.

These solved cases illustrate the format of a correct answer.
CCN(CC)c1ccc2c(-c3ccccc3C(=O)OCCOCC[18F])c3ccc(=[N+](CC)CC)cc-3oc2c1.Cc1ccc(S(=O)(=O)[O-])cc1 = 0.54
CCN(CC)c1ccc2c(-c3ccccc3C(=O)OCCC[18F])c3ccc(=[N+](CC)CC)cc-3oc2c1.Cc1ccc(S(=O)(=O)[O-])cc1 = 0.3

Input: Return reported Drug uptake; argument: `CCN(CC)c1ccc2c(-c3ccccc3C(=O)OCCOCCOCC[18F])c3ccc(=[N+](CC)CC)cc-3oc2c1.Cc1ccc(S(=O)(=O)[O-])cc1`
Output: 0.32

Input: One more compound: `CCN(CC)c1ccc2c(-c3ccccc3C(=O)OCC[18F])c3ccc(=[N+](CC)CC)cc-3oc2c1.Cc1ccc(S(=O)(=O)[O-])cc1`
Output: 0.16

----------
- assayProcedure: Metabolic stability of the compound in human serum at 3.7 to 5.6 MBq after 120 mins
- Type: ADME, cell-free
- measurementConditions: read-out: Stability
endpointLabel: remaining at 2 h (%)
Answer format: numeric, % implied, no suffix.

CCN(CC)c1ccc2c(-c3ccccc3C(=O)OCCOCC[18F])c3ccc(=[N+](CC)CC)cc-3oc2c1.Cc1ccc(S(=O)(=O)[O-])cc1 = 97.1

Here is another compound to look at.
Input: Fill blank: measured remaining at 2 h of the compound `CCN(CC)c1ccc2c(-c3ccccc3C(=O)OCCC[18F])c3ccc(=[N+](CC)CC)cc-3oc2c1.Cc1ccc(S(=O)(=O)[O-])cc1` is ____.
Output: 99
